- System: MM.1S cells
- run-description: Proliferation inhibition (IC50) in MM.1S cells, cell viability assay
- test-context: Homo sapiens, MM1.S, 72 h, read-out: IC50 (nM), proliferation inhibitory activity of MM.1S cells (half inhibitory concentration)
# IC50 per record follows
readout-type: IC50

• CC1(C)CCN(CCCCCCCSc2cccc3c2CN(C2CCC(=O)NC2=O)C3=O)CC1 (stereo not shown) [SIAIS1221027] = 0.038 nM
• O=C1CCC(N2Cc3c(SCCCCCCNC4CCCCC4)cccc3C2=O)C(=O)N1 (stereo not shown) [SIAIS1220183] = 0.197 nM
• O=C1CCC(N2Cc3c(SCc4ccc(CNC5CCCCC5)cc4F)cccc3C2=O)C(=O)N1 (stereo not shown) [SIAIS1227177] = 0.097 nM
• CCN(CC)Cc1csc(CSc2cccc3c2CN(C2CCC(=O)NC2=O)C3=O)n1 (stereo not shown) [SIAIS355002] = 1.07 nM
• CC(C)N(CCCCCCCSc1cccc2c1CN(C1CCC(=O)NC1=O)C2=O)C(C)C (stereo not shown) [SIAIS1220107] = 0.03 nM
• O=C1CCC(N2Cc3c(SCc4ccc(CN5CCOCC5)o4)cccc3C2=O)C(=O)N1 (stereo not shown) [SIAIS313126] = 2.97 nM
• O=C1CCC(N2Cc3c(SCc4ccc(CCCNC5CCCCC5)cc4)cccc3C2=O)C(=O)N1 (stereo not shown) [SIAIS1227045] = 0.06 nM
• O=C1CCC(N2Cc3c(SCCCc4ccc(CNC56CC7CC(CC(C7)C5)C6)cc4)cccc3C2=O)C(=O)N1 (stereo not shown) [SIAIS1227037] = 0.04 nM
• CN(C)CCCCCSc1cccc2c1CN(C1CCC(=O)NC1=O)C2=O (stereo not shown) [SIAIS1216089] = 2.83 nM
• O=C1CCC(N2Cc3c(SCc4cccc(CN5CCOCC5)c4)cccc3C2=O)C(=O)N1 (stereo not shown) [SIAIS1227137] = 1.04 nM
• O=C1CCC(N2Cc3c(SCCCc4ccc(CN5CCOCC5)cc4)cccc3C2=O)C(=O)N1 (stereo not shown) [SIAIS1227075] = 0.499 nM
• O=C1CCC(N2Cc3c(SCc4ccc(CNCC5CCCCC5)cc4)cccc3C2=O)C(=O)N1 (stereo not shown) [SIAIS1222187] = 0.005 nM
• O=C1CCC(N2Cc3c(SCc4ccc(CNC56CC7CC(CC5C7)C6)cc4)cccc3C2=O)C(=O)N1 (stereo not shown) [SIAIS1228019] = 0.051 nM
• CN(CCCCCCCSc1cccc2c1CN(C1CCC(=O)NC1=O)C2=O)C1CCC(C)(C)CC1 (stereo not shown) [SIAIS1221125] = 0.035 nM
• O=C1CCC(N2Cc3c(SCCCCCCCNC(C4CC4)C4CC4)cccc3C2=O)C(=O)N1 (stereo not shown) [SIAIS1224031] = 0.105 nM
• O=C1CCC(N2Cc3c(SCc4ccc(/C=C/Br)cc4)cccc3C2=O)C(=O)N1 (stereo not shown) [SIAIS1224154] = 0.809 nM

* * *

- System: MM.1S cells
- run-description: Proliferation inhibition (IC50) in MM.1S cells, cell viability assay
- test-context: Homo sapiens, MM1.S, 72 h, read-out: IC50 (nM), proliferation inhibitory activity of MM.1S cells (half inhibitory concentration)
readout-type: IC50 (nM)

- O=C1CCC(N2Cc3c(SCc4ccc(CN5CCOCC5)cc4)cccc3C2=O)C(=O)N1 (stereo not shown): 0.25
- CC(NCc1ccc(CSc2cccc3c2CN(C2CCC(=O)NC2=O)C3=O)cc1)C12CC3CC(CC(C3)C1)C2 (stereo not shown): 0.04
- O=C1CCC(N2Cc3c(SCCCCCCN4CCC5(CCCCC5)CC4)cccc3C2=O)C(=O)N1 (stereo not shown): 0.057
- CC1CC(C)CN(Cc2csc(CSc3cccc4c3CN(C3CCC(=O)NC3=O)C4=O)n2)C1 (stereo not shown): 1.63
